Tested on: Klebsiella pneumoniae
Experiment: Antibacterial activity against Klebsiella pneumoniae BAA 2146 expressing NDM-1 after 16 hrs by broth microdilution technique
Assay type: functional
Conditions: BAA 2146, 16 h
MIC reference

structureNotation | experimentalTarget | MIC
CCCCCCc1ccc(-c2nc(N)[nH]c2-c2ccccc2)cc1.Cl | Klebsiella pneumoniae | > 200 µM
CCCCCCc1ccc(-c2nc(N)[nH]c2Cc2ccccc2)cc1.Cl | Klebsiella pneumoniae | > 200 µM
CCCCCCCc1ccc(-c2c[nH]c(N)n2)cc1.Cl | Klebsiella pneumoniae | 200 µM
CC(C)(C)c1ccc(-c2c[nH]c(N)n2)cc1.Cl | Klebsiella pneumoniae | 200 µM
CCCCCCc1ccc(-c2c[nH]c(N)n2)cc1.Cl | Klebsiella pneumoniae | 100 µM
CCCCCCc1ccc(-c2nc(N)[nH]c2-c2ccc3ccccc3c2)cc1.Cl | Klebsiella pneumoniae | > 200 µM
CCCCCCc1ccc(-c2nc(N)[nH]c2C)cc1.Cl | Klebsiella pneumoniae | 100 µM
CCCCCCc1ccc(-c2nc(N)[nH]c2CC(C)C)cc1.Cl | Klebsiella pneumoniae | 200 µM
CCCCCCc1ccc(-c2nc(N)[nH]c2CCCCCC)cc1.Cl | Klebsiella pneumoniae | > 200 µM
CCCCCCc1ccc(-c2nc(N)[nH]c2CCC)cc1.Cl | Klebsiella pneumoniae | 100 µM
CCCCCc1ccc(-c2c[nH]c(N)n2)cc1.Cl | Klebsiella pneumoniae | 100 µM
CCCCc1ccc(-c2c[nH]c(N)n2)cc1.Cl | Klebsiella pneumoniae | 200 µM
Cl.Nc1nc(-c2ccc(-c3ccccc3)cc2)c[nH]1 | Klebsiella pneumoniae | > 200 µM
